B1: CCDC6 (parent)
chain: TLFKKIQALQKEKETLAVNYEKEE

# Variants of: B1
# TEST_NAME: protein stability index of a GFP-peptide fusion (GPS, HEK-293T) (PSI 1-6); higher = more stable;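 note: lentivirally expressed fusions sorted by FACS into six bins by GFP to DsRed ratio, PSI derived from sequencing read proportions per bin multiplied by bin number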
# RUN_PARAMETERS: c terminus: a fixed tail appended
Use 3 as the dividing line for protein stability index, with the line itself on the 1.0 side and lower values as 0.0.

{"MUTATION_KEY": "V18H", "LABEL_VALUE": 1.0}
{"MUTATION_KEY": "L2D", "LABEL_VALUE": 1.0}
{"MUTATION_KEY": "E23N", "LABEL_VALUE": 1.0}
{"MUTATION_KEY": "I6S", "LABEL_VALUE": 1.0}
{"MUTATION_KEY": "E14L", "LABEL_VALUE": 0.0}
{"MUTATION_KEY": "E24Y", "LABEL_VALUE": 0.0}
{"MUTATION_KEY": "A8V", "LABEL_VALUE": 1.0}
{"MUTATION_KEY": "L9Q", "LABEL_VALUE": 1.0}
{"MUTATION_KEY": "I6Q", "LABEL_VALUE": 1.0}
{"MUTATION_KEY": "E21C", "LABEL_VALUE": 0.0}
{"MUTATION_KEY": "K11P", "LABEL_VALUE": 1.0}
{"MUTATION_KEY": "K11A", "LABEL_VALUE": 1.0}
{"MUTATION_KEY": "E21A", "LABEL_VALUE": 0.0}
{"MUTATION_KEY": "F3Q", "LABEL_VALUE": 1.0}
{"MUTATION_KEY": "N19E", "LABEL_VALUE": 1.0}
{"MUTATION_KEY": "T1N", "LABEL_VALUE": 1.0}
{"MUTATION_KEY": "V18W", "LABEL_VALUE": 0.0}
{"MUTATION_KEY": "L16P", "LABEL_VALUE": 1.0}
{"MUTATION_KEY": "Q10C", "LABEL_VALUE": 1.0}
{"MUTATION_KEY": "T15N", "LABEL_VALUE": 1.0}
{"MUTATION_KEY": "E21Y", "LABEL_VALUE": 0.0}

Sourced from the supplement of paper PMC10567573
